# Tested on: HeLa Cells
# test details: GFP plasmid transfection with DOTMA/DOPE plus plant virus movement protein derived peptides (Example 2)
# Type: cell-based
# measurement parameters: value column 4 of 6, head not given; 1-6 μL of transfection reagents; 4 µL transfection reagent
// reported Relative Fluorescence of Transfection of Hela Cells per item
property measured: Relative Fluorescence of Transfection of Hela Cells

{"substance": "543 (RRRRRRRRRRRRVDFSHVDYGKWERKPIRCASMSRLGLRG) [compound 543]", "recorded value": 28451}
{"substance": "544 (GVKRSYGAARGDDRRRPNVVAPYKAWRRRRRRRRRRRR) [compound 544]", "recorded value": 16908}
{"substance": "545 (KSVPNRTRTYIKLKRLRFKGAPYKAWRRRRRRRRRRRR) [compound 545]", "recorded value": 14693}
{"substance": "547 (SYVKTVPNRTRTYIKGGGGGRRRRRRRRRRRR) [compound 547]", "recorded value": 11241}
{"substance": "109 (RRRRRRRRRRRR) [compound 109]", "recorded value": 8520}
{"substance": "546 (RTGVKRSYGAARGDDRRRPNVVRRRRRRRRRRRR) [compound 546]", "recorded value": 11535}
{"substance": "541 (RRRRRRRRRRRRGKWERKPIRCAS) [compound 541]", "recorded value": 23644}
{"substance": "540 (RRRRRRRRRRRRVDYGKWERKPIRCASMSR) [compound 540]", "recorded value": 18620}
{"substance": "542 (KKKKKKKKKKKKKKKKGKWERKPIRCAS) [compound 542]", "recorded value": 42152}

---

Recorded measurements of Relative Fluorescence of Transfection of HeLa Cells (RF), one per entry
# Test system: HeLa Cells
# test details: GFP plasmid transfection with DOTMA/DOPE plus surface ligand peptide, fluorescent plate reader (Example 1)
# Format: cell-based
# measurement parameters: DOTMA/DOPE + peptide linked to R12 or K16; EF1Alpha eGFP plasmid; 42 hours
property measured: Relative Fluorescence of Transfection of HeLa Cells (RF)

{"substance": "354 (SINNTAVMQRLT) [compound 354]", "recorded value": 4403}
{"substance": "342 (TAGSCLRKFSTM) [compound 342]", "recorded value": 33666}
{"substance": "336 (GEFYFDLRLKGDK) [compound 336]", "recorded value": 25262}
{"substance": "107 (RRRRRRRR) [compound 107]", "recorded value": 75}
{"substance": "452 (CNYYSNSYSFWLASLNPER) [compound 452]", "recorded value": 13888}
{"substance": "343 (LFSHAVSSNG) [compound 343]", "recorded value": 5910}
{"substance": "327 (VAEIDGIEL) [compound 327]", "recorded value": 5345}
{"substance": "205 (AASIKVAVSADR) [compound 205]", "recorded value": 26368}
{"substance": "450 (TAGSCLRKFSCL) [compound 450]", "recorded value": 21045}
{"substance": "268 (GGFLKYTVSYDI) [compound 268]", "recorded value": 25885}
{"substance": "358 (GHRGPTGRPGKRGKQGQKGDS) [compound 358]", "recorded value": 15132}
{"substance": "369 (TAIPSCPEGTVPLYS) [compound 369]", "recorded value": 14444}
{"substance": "355 (FRHRNRKGY) [compound 355]", "recorded value": 32628}
{"substance": "256 (RQVFQVAYIIIKA) [compound 256]", "recorded value": 2243}
{"substance": "347 (DLGTAGSCLRKFSTM) [compound 347]", "recorded value": 22527}
{"substance": "237 (KNSFMALYLSKG) [compound 237]", "recorded value": 21288}
